# targetEntity: β-Galactosidase
# testProtocol: glycosidase inhibition assay, bovine liver β-galactosidase
# Assay type: biochemical
quantityMeasured: log10 IC50 (log10 of the value in µM)
In plain terms, each number is the log10 of measured IC50 in µM.

Response field log10 IC50 (β-Galactosidase) for item OCCC[C@@H](O)CCCCCCCCC[C@@H]1N[C@@H](CO)[C@H](O)[C@H]1O [ent-10’-epi-3] : 0.95

Response field log10 IC50 (β-Galactosidase) for item OCCC[C@@H](O)CCCCCCCCC[C@H]1N[C@H](CO)[C@@H](O)[C@@H]1O [compound 3] : 0.36

Response field log10 IC50 (β-Galactosidase) for item OCCCC(O)CCCCCCCCCC1NC(CO)C(O)C1O (stereo not drawn) [2,10-di-epi-3] : 1.11

Response field log10 IC50 (β-Galactosidase) for item OCCC[C@H](O)CCCCCCCCC[C@@H]1N[C@@H](CO)[C@@H](O)[C@H]1O [ent-3-epi-3] : 1.61

Response field log10 IC50 (β-Galactosidase) for item OCCC[C@@H](O)CCCCCCCCC[C@H]1N[C@@H](CO)[C@@H](O)[C@@H]1O [2-epi-3] : 0.87

Response field log10 IC50 (β-Galactosidase) for item OCCC[C@H](O)CCCCCCCCC[C@H]1N[C@H](CO)[C@@H](O)[C@@H]1O [10’-epi-3] : -0.70

Response field log10 IC50 (β-Galactosidase) for item OCCC[C@H](O)CCCCCCCCC[C@@H]1N[C@@H](CO)[C@H](O)[C@H]1O [ent-3] : 1.70

Response field log10 IC50 (β-Galactosidase) for item OCCC[C@@H](O)CCCCCCCCC[C@@H]1N[C@@H](CO)[C@@H](O)[C@H]1O [ent-3,10-di-epi-3] : 1.49

----------
# targetEntity: α-Glucosidase (Saccharomyces cerevisiae, UniProt P53341)
# Construct: purchased Sigma-Aldrich Chemical Co
# Sequence (P53341 whole entry): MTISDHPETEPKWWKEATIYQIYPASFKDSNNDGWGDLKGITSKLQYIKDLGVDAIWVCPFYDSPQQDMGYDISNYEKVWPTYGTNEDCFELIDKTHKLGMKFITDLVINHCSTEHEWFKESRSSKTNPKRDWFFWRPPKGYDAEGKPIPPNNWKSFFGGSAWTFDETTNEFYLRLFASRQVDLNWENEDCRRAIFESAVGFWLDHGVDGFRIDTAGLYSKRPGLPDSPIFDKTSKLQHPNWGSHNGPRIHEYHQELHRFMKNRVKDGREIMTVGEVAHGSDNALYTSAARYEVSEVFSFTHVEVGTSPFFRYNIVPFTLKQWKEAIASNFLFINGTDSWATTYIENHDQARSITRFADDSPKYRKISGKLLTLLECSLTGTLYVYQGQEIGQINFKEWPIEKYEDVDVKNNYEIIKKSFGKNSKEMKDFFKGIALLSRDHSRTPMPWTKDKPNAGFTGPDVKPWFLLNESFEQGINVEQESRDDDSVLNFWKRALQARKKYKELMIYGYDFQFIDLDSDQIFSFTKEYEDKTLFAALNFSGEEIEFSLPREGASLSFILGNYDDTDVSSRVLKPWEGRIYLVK
# testProtocol: glycosidase inhibition assay, yeast α-glucosidase
# Type: biochemical
# Protocol: With rat intestinal maltase as an exception, other enzymes were purchased from Sigma-Aldrich Chemical Co. (St. Louis, Mo. USA). […] The released D-glucose was determined colorimetrically using the Glucose CII-test Wako (Wako Pure Chemical Ind.; Osaka, Japan). Other glycosidase activities were determined using an appropriate p-nitrophenyl glycoside as substrate in a buffer solution at the optimal pH value of each enzyme. […] The released p-nitrophenol was measured spectrometrically at 400 nm.
quantityMeasured: inhibition at 100 µM (%)
# value in %; strip the unit string

compound OCCC[C@H](O)CCCCCCCCC[C@@H]1N[C@@H](CO)[C@@H](O)[C@H]1O [ent-3-epi-3] , inhibition at 100 µM observed: 0

compound OCCC[C@H](O)CCCCCCCCC[C@@H]1N[C@@H](CO)[C@H](O)[C@H]1O , inhibition at 100 µM observed: 1.9

compound OCCC[C@@H](O)CCCCCCCCC[C@@H]1N[C@@H](CO)[C@H](O)[C@H]1O [ent-10’-epi-3] , inhibition at 100 µM observed: 1.9

compound OCCC[C@@H](O)CCCCCCCCC[C@H]1N[C@H](CO)[C@@H](O)[C@@H]1O , inhibition at 100 µM observed: 2.6

----------
# targetEntity: β-Glucuronidase (Escherichia coli, UniProt P05804)
# Construct: purchased Sigma-Aldrich Chemical Co
# Sequence (P05804 whole entry): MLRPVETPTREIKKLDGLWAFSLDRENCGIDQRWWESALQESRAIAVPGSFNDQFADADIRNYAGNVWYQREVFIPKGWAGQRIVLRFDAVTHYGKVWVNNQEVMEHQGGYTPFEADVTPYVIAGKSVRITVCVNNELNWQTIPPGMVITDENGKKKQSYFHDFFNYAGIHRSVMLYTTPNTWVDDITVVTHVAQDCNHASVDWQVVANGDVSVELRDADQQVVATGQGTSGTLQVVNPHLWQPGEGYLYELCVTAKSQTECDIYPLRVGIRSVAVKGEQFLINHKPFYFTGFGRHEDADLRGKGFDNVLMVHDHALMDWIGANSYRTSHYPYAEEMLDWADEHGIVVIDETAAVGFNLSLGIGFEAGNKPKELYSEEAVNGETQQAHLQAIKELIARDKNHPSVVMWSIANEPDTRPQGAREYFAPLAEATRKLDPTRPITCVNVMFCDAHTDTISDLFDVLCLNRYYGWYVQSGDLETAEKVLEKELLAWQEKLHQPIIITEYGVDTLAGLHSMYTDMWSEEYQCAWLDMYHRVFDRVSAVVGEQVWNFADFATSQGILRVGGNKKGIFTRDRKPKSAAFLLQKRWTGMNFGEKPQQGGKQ
# testProtocol: glycosidase inhibition assay, E. coli β-glucuronidase
# Assay type: biochemical
quantityMeasured: pIC50
For clarity, pIC50 is expressed as the negative log10 of concentration in mol/L.

compound OCCC[C@@H](O)CCCCCCCCC[C@H]1N[C@@H](CO)[C@@H](O)[C@@H]1O [2-epi-3] , pIC50 observed: 4.14

compound OCCC[C@@H](O)CCCCCCCCC[C@@H]1N[C@@H](CO)[C@@H](O)[C@H]1O [ent-3,10-di-epi-3] , pIC50 observed: 4.38
